Where do the numbers come from? From the nanobody polyreactivity screen of Harvey et al. (2022).

- assay procedure: yeast display, Sf9 membrane polyspecificity reagent, FACS + sequencing; frameworks hold sequencing errors

ordered residues	polyreactivity (PSR sort gate)
QVQLVESGGGLVQAGGSLRLSCAASGRTLVWYTMGWYRQAPGKEREFVAVITTGSGSTYYADSVKGRFTISRDNAKNTVYLQMNSLKPEDTAVYYCNAGYGGYSYHYPPYEYWGQGTLVTVSS	low polyreactivity
QVQLVESGGGLVQAGGSLRLSCAASGSIFDTYAMGWYRQAPGKERELVATITRSGARTYYADSVKGRFTISRDNAKITVYLQMNSLKTEDTAVYYCAALYYDDFGYEYDYWGQGTQVTVSS	low polyreactivity
QVQLVESGGGLVQAGGSLRLSCAASGLTFSVYAMGWYRQAPGKERELVAAISGSGGSTYYADSVKGRFTISRDNAKNTVYLQMNSLKPEDTAVYYCAARYDVHYDGMDYWGLGTQVTVSS	low polyreactivity

----------
- assay procedure: yeast display, Sf9 membrane polyspecificity reagent, FACS + sequencing; frameworks hold sequencing errors
measure name: polyreactivity (PSR sort gate)

Sample answers from the record:
ordered residues	assay value
QVQLVESGGGLVQAGGSLRLSCAASGSIFSGYVMGWYRQAPGKERELVAAISSGGSTYYADSVKGRFTISRDNAKNTVYLQMNSLKPEDTAVYYCAARSRKYGLLFYYWGQGTQVTVSS	high polyreactivity
QVQLVESGGGLVQAGGSLRLSCAASGSTFVQYAMGWYRQAPGKERELVAAISGSGGRTYYADSVKGRFTLSRDNAKNTVYSHMNSLKPEDTAVYYCAAAYNTDFYYWGQGTQVTVSS	high polyreactivity
QVQLVESGGALVQAGGSLRLSCAASGLIYSHNAMGWYRQAPGKERELVAAISWRGGRTYYADSVKGRFTISRDNAKNTVYLLMNSLKPEDTAVFYCNKYYGKRYDYLGQGTQVTVSS	high polyreactivity
QVQLVESGGGLVHAGGSLRLSCAASGYTFSRNAMGWYRQAPGKERELVAAITGSGGSTYYADSVKGRFTISRDNAKNTVYLQMNSLKPEDTAVYYCATEVKRGYVGFDYWGQGTQVTVSS	low polyreactivity

Check the records and state polyreactivity (PSR sort gate) for "QVQLVESGGGLVQAGGSLRLSCAASGRIFPKNAMGWYRQAPGTERELVAAISSGGRTKYADSVKGRFTISRDNAKNTVYLQMNSLKPEDTAVYYCAAYFVSKTGGYYYWGQGTQVSVSS" high polyreactivity

Identify measured polyreactivity (PSR sort gate) corresponding to "QVQLVESGGGLVQEGGSLRLSCADSGITFWAYAMGWYRQAPGKERELVASISSGGSTYYADSVKGRFTISRDNAKNTVYLQMNSLKPEDTAVYYCNTQDRSEYDWGQGTQVTVSS" high polyreactivity

Let me know recorded polyreactivity (PSR sort gate) for "QVQLVESGGGLVQAGGRLRLSCAASGSIFQSYAMGWYRQAPGKERELVAVITGGGGSTYYADSVKGRFTISRDNAKNTVYLQMNSLKPEDTAVYYCAARPVTSYAYGSWGQGTQVTVSS" , thanks. low polyreactivity

# return recorded polyreactivity (PSR sort gate) for entry "QVQLVESGGGLVQAGGSLRLSCAASGSIYTQNAMGWYRQAPGKERELVADISRGSTYYADSVKGRFTISRDNAKNTVYLQMNSLKPEDTAVYYCAADDIAHPSFVSTVDVGMDYWGQGTQVTVSS" low polyreactivity

Please report the measured polyreactivity (PSR sort gate) for "QVQLVESGGGLVQAGGSLRLSCAASGRTFPSYAMGWYRQAPGKERELVAGIRWGAGRTYYADSVKGRFTISRDNAKNTVYLQMNSLKPEVTAVYYCAADPWSGSDYWGQGTQVTVSS" low polyreactivity

Please indicate polyreactivity (PSR sort gate) recorded for "QVQLVESGGGLVQAGGSLRLSCAASGYTIRANAMGWYRQAPGKERELVAAISRSGGSTYYADSVKGRFTISRDNAKNTVYLQMNSLKPEDTAVYYCNTRQQYQFNYWGQGTQVTVSS" high polyreactivity

Respond only with polyreactivity (PSR sort gate) recorded for "QVQLVESAGGLVQAGGSLRLSCAASGIIFVENAMGWYRQAPGKERELVAAISWDGGSTYYADSVKGRFTISRDNAKNTVYLQMNSLNPEDTAVYYCAADLTISYSQEYYYWGQGTQVTVSS" low polyreactivity
